target: CYP2C19 (Homo sapiens (Human))
Sequence (P33261 whole entry): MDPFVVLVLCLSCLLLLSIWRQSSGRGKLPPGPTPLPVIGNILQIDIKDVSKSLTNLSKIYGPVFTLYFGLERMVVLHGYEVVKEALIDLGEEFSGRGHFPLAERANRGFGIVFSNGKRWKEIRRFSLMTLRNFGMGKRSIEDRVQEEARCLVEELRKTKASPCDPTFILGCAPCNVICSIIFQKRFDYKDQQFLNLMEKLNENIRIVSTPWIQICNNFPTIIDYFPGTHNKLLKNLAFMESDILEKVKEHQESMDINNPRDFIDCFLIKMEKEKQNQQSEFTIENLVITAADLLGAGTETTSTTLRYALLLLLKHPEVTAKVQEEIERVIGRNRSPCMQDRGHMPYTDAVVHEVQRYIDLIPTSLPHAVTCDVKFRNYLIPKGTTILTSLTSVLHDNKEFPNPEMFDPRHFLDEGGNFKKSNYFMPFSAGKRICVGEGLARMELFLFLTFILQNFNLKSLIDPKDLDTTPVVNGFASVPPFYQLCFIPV
pIC50: −log10 of the molar value.
value-type: pIC50

Exercise: Identify the reported pIC50 for the following entry. CS(=O)(=O)c1ccc2c(c1)CN([C@H]1CO[C@H](c3cc(F)ccc3F)[C@@H](N)C1)C2
Key: < 4.60

---

target: CYP3A4 (Homo sapiens (Human), UniProt P08684); assay: IC50 of inhibiting CYP enzyme system, human liver microsomes; format: in vitro ADME; conditions: substrate Midazolam, read-out: IC50 in inhibiting CYP Enzyme System 3A4_Mid
Sequence (P08684 whole entry): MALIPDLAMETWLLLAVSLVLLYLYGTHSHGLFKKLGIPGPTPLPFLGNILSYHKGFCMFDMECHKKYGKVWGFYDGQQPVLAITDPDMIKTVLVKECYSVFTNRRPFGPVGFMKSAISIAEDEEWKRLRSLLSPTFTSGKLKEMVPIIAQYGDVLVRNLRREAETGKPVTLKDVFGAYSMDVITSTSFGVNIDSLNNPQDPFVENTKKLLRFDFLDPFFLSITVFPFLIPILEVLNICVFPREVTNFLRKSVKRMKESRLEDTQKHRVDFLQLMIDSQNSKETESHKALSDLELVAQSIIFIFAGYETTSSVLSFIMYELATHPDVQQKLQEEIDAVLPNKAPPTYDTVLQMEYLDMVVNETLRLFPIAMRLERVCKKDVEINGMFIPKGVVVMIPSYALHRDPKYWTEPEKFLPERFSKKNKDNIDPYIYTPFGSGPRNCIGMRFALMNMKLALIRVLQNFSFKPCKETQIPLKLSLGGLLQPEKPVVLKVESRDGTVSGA
value-type: IC50

Exercise: Answer briefly: IC50 recorded on CYP3A4 (Homo sapiens (Human), UniProt P08684) for CS(=O)(=O)c1ccc2c(c1)CN([C@H]1CO[C@H](c3cc(F)ccc3F)[C@@H](N)C1)C2
Key: > 25 µM
